Recorded viability, T/C values for a group of compounds are listed next.
Test system: 777334-354-R2-J4-PDC tumor spheroids with HUVEC/MSC, viability
ASSAY DETAILS: Anticancer human tumor 777334-354-R2-J4-PDC patient-derived pancreatic adenocarcinoma cell line growth inhibition [GQUAD]
MEASUREMENT SETUP: second compound 0.316 µM; first compound 0.0316 µM; stronger effect = lower value

{"COMPOUND": "COc1cc(C2c3cc4c(cc3C(OC3OC5COC(C)OC5C(O)C3O)C3COC(=O)C23)OCO4)cc(OC)c1O (stereo not given) + CN(C)c1ccc(Nc2c3ccc(NC(=O)CCN4CCCC4)cc3nc3cc(NC(=O)CCN4CCCC4)ccc23)cc1", "MEASURED TARGET": "777334-354-R2-J4-PDC tumor spheroids with HUVEC/MSC, viability", "viability, T/C, %": 93.5}
{"COMPOUND": "CC(=O)O[C@H]1C(=O)[C@@]2(C)[C@H]([C@H](OC(=O)c3ccccc3)[C@]3(O)C[C@H](OC(=O)[C@H](O)[C@@H](NC(=O)c4ccccc4)c4ccccc4)C(C)=C1C3(C)C)[C@]1(OC(C)=O)CO[C@@H]1C[C@@H]2O + Cc1cnc(CNC(=O)c2c(=O)c3ccc(N4CCCN(C)CC4)nc3n3c2sc2ccccc23)cn1", "MEASURED TARGET": "777334-354-R2-J4-PDC tumor spheroids with HUVEC/MSC, viability", "viability, T/C, %": 74.3}
{"COMPOUND": "CC(C)n1c(=O)n(C)c2cnc3cc(F)c(-c4ccc(OCCCN5CCCCC5)nc4)cc3c21 + Cc1[nH]c2ccc(F)cc2c1-c1nc2c3cccnc3c3ncccc3c2[nH]1", "MEASURED TARGET": "777334-354-R2-J4-PDC tumor spheroids with HUVEC/MSC, viability", "viability, T/C, %": 101}
{"COMPOUND": "COc1cc(C2c3cc4c(cc3C(OC3OC5COC(C)OC5C(O)C3O)C3COC(=O)C23)OCO4)cc(OC)c1O (stereo not given) + Cc1cnc(CNC(=O)c2c(=O)c3ccc(N4CCCN(C)CC4)nc3n3c2sc2ccccc23)cn1", "MEASURED TARGET": "777334-354-R2-J4-PDC tumor spheroids with HUVEC/MSC, viability", "viability, T/C, %": 79.3}
{"COMPOUND": "Cc1[nH]c2ccccc2c1CCNCc1ccc(/C=C/C(=O)NO)cc1 + CN(C)c1ccc(Nc2c3ccc(NC(=O)CCN4CCCC4)cc3nc3cc(NC(=O)CCN4CCCC4)ccc23)cc1", "MEASURED TARGET": "777334-354-R2-J4-PDC tumor spheroids with HUVEC/MSC, viability", "viability, T/C, %": 88.9}

====

System: 777334-354-R2-J4-PDC tumor spheroids with HUVEC/MSC, viability
ASSAY DETAILS: Anticancer human tumor 777334-354-R2-J4-PDC cell line growth inhibition [GQUAD];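 further: spheroids exposed to compounds for 7 days before readout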
MEASUREMENT SETUP: curve of first compound; second compound 1 µM
RECORDED METRIC: IC50 (nM)

{"MOLECULE": "Nc1ccn(C2OC(CO)C(O)C2(F)F)c(=O)n1 (stereo unspecified) + Cc1[nH]c2ccc(F)cc2c1-c1nc2c3cccnc3c3ncccc3c2[nH]1", "RECORDED METRIC": "IC50", "UNIT SPEC": "nM", "VALUE QUALIFIER": "=", "VALUE OBSERVED": 466}
{"MOLECULE": "C#Cc1c(F)ccc2cc(O)cc(-c3ncc4c(N5CC6CCC(C5)N6)nc(OCC56CCCN5CC(F)C6)nc4c3F)c12 (stereo unspecified) + Cc1[nH]c2ccc(F)cc2c1-c1nc2c3cccnc3c3ncccc3c2[nH]1", "RECORDED METRIC": "IC50", "UNIT SPEC": "nM", "VALUE QUALIFIER": "<", "VALUE OBSERVED": 31.6}
{"MOLECULE": "O=C(c1cc(Cc2n[nH]c(=O)c3ccccc23)ccc1F)N1CCN(C(=O)C2CC2)CC1 + Cc1[nH]c2ccc(F)cc2c1-c1nc2c3cccnc3c3ncccc3c2[nH]1", "RECORDED METRIC": "IC50", "UNIT SPEC": "nM", "VALUE QUALIFIER": ">", "VALUE OBSERVED": 10000}
{"MOLECULE": "CC[C@@]1(O)C(=O)OCc2c1cc1n(c2=O)Cc2cc3c(CN(C)C)c(O)ccc3nc2-1 + Cc1cnc(CNC(=O)c2c(=O)c3ccc(N4CCCN(C)CC4)nc3n3c2sc2ccccc23)cn1", "RECORDED METRIC": "IC50", "UNIT SPEC": "nM", "VALUE QUALIFIER": "=", "VALUE OBSERVED": 233}
{"MOLECULE": "O=c1[nH]cc(F)c(=O)[nH]1 + Cc1cnc(CNC(=O)c2c(=O)c3ccc(N4CCCN(C)CC4)nc3n3c2sc2ccccc23)cn1", "RECORDED METRIC": "IC50", "UNIT SPEC": "nM", "VALUE QUALIFIER": ">", "VALUE OBSERVED": 10000}
{"MOLECULE": "CC1COCCN1c1cc(C2(O)CC3CCC(C2)O3)c2cnn(-c3ccn[nH]3)c2n1 (stereo unspecified) + CN(C)c1ccc(Nc2c3ccc(NC(=O)CCN4CCCC4)cc3nc3cc(NC(=O)CCN4CCCC4)ccc23)cc1", "RECORDED METRIC": "IC50", "UNIT SPEC": "nM", "VALUE QUALIFIER": "=", "VALUE OBSERVED": 348}

====

System: 777334-354-R2-J4-PDC tumor spheroids with HUVEC/MSC, viability
ASSAY DETAILS: Anticancer human tumor 777334-354-R2-J4-PDC cell line growth inhibition [GQUAD];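 further: spheroids exposed to compounds for 7 days before readout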
MEASUREMENT SETUP: second compound 0.316 µM; first compound 0.0316 µM; stronger effect = lower value

{"COMPOUND": "O=c1[nH]cc(F)c(=O)[nH]1 + Cc1[nH]c2ccc(F)cc2c1-c1nc2c3cccnc3c3ncccc3c2[nH]1", "MEASURED TARGET": "777334-354-R2-J4-PDC tumor spheroids with HUVEC/MSC, viability", "viability, T/C": "89.1%"}
{"COMPOUND": "CCc1c2c(nc3ccc(O)cc13)-c1cc3c(c(=O)n1C2)COC(=O)[C@]3(O)CC + Cc1[nH]c2ccc(F)cc2c1-c1nc2c3cccnc3c3ncccc3c2[nH]1", "MEASURED TARGET": "777334-354-R2-J4-PDC tumor spheroids with HUVEC/MSC, viability", "viability, T/C": "26.4%"}
{"COMPOUND": "CC1COCCN1c1cc(-c2ccnn2C)c2ccnc(-c3ccn[nH]3)c2n1 (stereo not given) + Cc1[nH]c2ccc(F)cc2c1-c1nc2c3cccnc3c3ncccc3c2[nH]1", "MEASURED TARGET": "777334-354-R2-J4-PDC tumor spheroids with HUVEC/MSC, viability", "viability, T/C": "90.9%"}
{"COMPOUND": "O=C(c1cc(Cc2n[nH]c(=O)c3ccccc23)ccc1F)N1CCN(C(=O)C2CC2)CC1 + CN(C)c1ccc(Nc2c3ccc(NC(=O)CCN4CCCC4)cc3nc3cc(NC(=O)CCN4CCCC4)ccc23)cc1", "MEASURED TARGET": "777334-354-R2-J4-PDC tumor spheroids with HUVEC/MSC, viability", "viability, T/C": "80.6%"}
{"COMPOUND": "CC[C@@]1(O)C(=O)OCc2c1cc1n(c2=O)Cc2cc3c(CN(C)C)c(O)ccc3nc2-1 + Cc1cnc(CNC(=O)c2c(=O)c3ccc(N4CCCN(C)CC4)nc3n3c2sc2ccccc23)cn1", "MEASURED TARGET": "777334-354-R2-J4-PDC tumor spheroids with HUVEC/MSC, viability", "viability, T/C": "70.1%"}

====

System: 777334-354-R2-J4-PDC tumor spheroids with HUVEC/MSC, viability
ASSAY DETAILS: Anticancer human tumor 777334-354-R2-J4-PDC cell line growth inhibition [GQUAD];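 further: spheroids exposed to compounds for 7 days before readout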
MEASUREMENT SETUP: second compound 10 µM; first compound 0.0316 µM; stronger effect = lower value
Excerpt: DNA G-quadruplex Stabilizer Agents in Combinations in Complex Spheroids A high-throughput screen of multi-cell type tumor spheroids was designed to identify active combinations of DNA G-quadruplex stabilizer agents and targeted small molecules. […] Compounds. […] If the clinical Cmax for an agent had not been determined, the highest concentration tested was 10 microM. […]
RECORDED METRIC: viability, T/C

{"MOLECULE": "CC(=O)O[C@H]1C(=O)[C@@]2(C)[C@H]([C@H](OC(=O)c3ccccc3)[C@]3(O)C[C@H](OC(=O)[C@H](O)[C@@H](NC(=O)c4ccccc4)c4ccccc4)C(C)=C1C3(C)C)[C@]1(OC(C)=O)CO[C@@H]1C[C@@H]2O + Cc1cnc(CNC(=O)c2c(=O)c3ccc(N4CCCN(C)CC4)nc3n3c2sc2ccccc23)cn1", "RECORDED METRIC": "viability, T/C", "VALUE OBSERVED": "61.2%"}
{"MOLECULE": "COc1ncnc(C2CC2)c1-c1ncc2cnn(Cc3ccc(-c4nc(C(F)(F)F)cn4C(C)C)cc3)c2n1 + Cc1cnc(CNC(=O)c2c(=O)c3ccc(N4CCCN(C)CC4)nc3n3c2sc2ccccc23)cn1", "RECORDED METRIC": "viability, T/C", "VALUE OBSERVED": "55.5%"}
{"MOLECULE": "CC(=O)O[C@H]1C(=O)[C@@]2(C)[C@H]([C@H](OC(=O)c3ccccc3)[C@]3(O)C[C@H](OC(=O)[C@H](O)[C@@H](NC(=O)c4ccccc4)c4ccccc4)C(C)=C1C3(C)C)[C@]1(OC(C)=O)CO[C@@H]1C[C@@H]2O + CN(C)c1ccc(Nc2c3ccc(NC(=O)CCN4CCCC4)cc3nc3cc(NC(=O)CCN4CCCC4)ccc23)cc1", "RECORDED METRIC": "viability, T/C", "VALUE OBSERVED": "70%"}
{"MOLECULE": "O=C(c1cc(Cc2n[nH]c(=O)c3ccccc23)ccc1F)N1CCN(C(=O)C2CC2)CC1 + Cc1cnc(CNC(=O)c2c(=O)c3ccc(N4CCCN(C)CC4)nc3n3c2sc2ccccc23)cn1", "RECORDED METRIC": "viability, T/C", "VALUE OBSERVED": "61.5%"}

The values you see were collected from PubChem BioAssay AID2060499.
